# viability at 48 h, 10 µM per entry
# assay explanation: in vitro
# Design: species or system CCD841, HEK293
# recorded conditions: human, hb2 cells, read-out: HB-2 Cells Viability (%)

Take a look at these entries with their results.
molecule	viability at 48 h, 10 µM
O=C(CCl)Nc1ccccc1N1CCCC1	98.5%
Cl.O=C(CCl)N1CCN(Cc2ccc3c(c2)OCO3)CC1	20.7%
Cl.O=C(CCl)N1CCN(Cc2ccccc2F)CC1	24%
O=C(CCl)N1CCCCCCC1	36.7%
O=C(CCl)N1CCN(c2ccccc2Cl)CC1	2.3%
O=C(CCl)Nc1ccc(Br)cc1F	50.9%
O=C(CCl)Nc1nc(-c2ccco2)cs1	44%
CC(NC(=O)CCl)c1ccc(F)cc1 (centres unmarked)	84.6%

// viability at 48 h, 10 µM lookup, key: C=CC(=O)Nc1ccc(OC)c(F)c1 104%

Consider the molecule shown here: Cc1nc(CN2CCN(C(=O)CCl)CC2)cs1 What is its recorded viability at 48 h, 10 µM? 92%

Report viability at 48 h, 10 µM for Cl.O=C(CCl)N1CCN(c2ccc(F)cc2)CC1 please. 24.7%

====

# tgt: OTUB2 (OTUB2A) (Homo sapiens)
# Construct: full length residues 1-234, E. coli BL21(DE3)-R3, His tag removed by TEV, construct 27312 Da
# Sequence (Q96DC9 whole entry, the tested form may be a part): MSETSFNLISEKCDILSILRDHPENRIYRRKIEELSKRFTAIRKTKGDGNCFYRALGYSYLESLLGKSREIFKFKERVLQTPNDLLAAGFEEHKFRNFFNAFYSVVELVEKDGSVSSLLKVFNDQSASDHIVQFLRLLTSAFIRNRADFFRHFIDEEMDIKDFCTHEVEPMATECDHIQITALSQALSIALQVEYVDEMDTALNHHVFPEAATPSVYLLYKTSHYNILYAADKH
# Set-up: Intact protein LC/MS covalent labelling, fragments in pools of five, 200 uM each, 4 °C
# recorded conditions: 24 h, 4 °C, pool of five; 200 µM; covalent
assay endpoint: OTUB2
# answer = number (no unit)

In the examples that follow, each entry is paired with its recorded OTUB2.
compound	observed measurement
C=CC(=O)N(C)C1CCCc2nc(CC)sc21 (stereo not shown) [PCM-0102483]	0
CC(=O)c1cc2c(cc1NC(=O)CCl)OCO2 [PCM-0103010]	0
O=C(CCl)N1CCN(S(=O)(=O)c2cccs2)CC1 [PCM-0102241]	0

Field: next compound
Param item = Cc1cc(CNC(=O)CCl)ccc1F [PCM-0102305] ; retrieve measured OTUB2. 0.59

====

# tgt: NUDT7 (Homo sapiens, UniProt P0C024)
# Construct: residues 14-235, E. coli, pNIC28-Bsa4, N-terminal His6 tag removed by TEV, construct 26672 Da
# Sequence (P0C024 14-235): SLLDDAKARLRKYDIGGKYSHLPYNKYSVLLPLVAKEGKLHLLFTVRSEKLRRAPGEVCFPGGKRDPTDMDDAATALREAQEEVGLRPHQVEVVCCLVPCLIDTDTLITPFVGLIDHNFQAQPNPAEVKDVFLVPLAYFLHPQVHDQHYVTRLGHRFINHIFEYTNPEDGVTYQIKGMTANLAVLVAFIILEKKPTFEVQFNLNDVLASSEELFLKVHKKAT
# Set-up: Intact protein LC/MS covalent labelling, fragments in pools of five, 200 uM each, 4 °C
# recorded conditions: 24 h, 4 °C, pool of five; 200 µM; covalent
The following molecules are shown together with reported NUDT7 values.
Answer with the value's number alone.

// solved cases for NUDT7 follow
molecule	observed measurement
O=C(CCl)Nc1nccs1 [PCM-0102242]	0
C=CC(=O)N1CCCC(n2nc(C)nc2C)C1 (stereo not drawn) [PCM-0102479]	0
COC(=O)c1c(NC(=O)CCl)sc2c1CCC(C)C2 (stereo not drawn) [PCM-0102418]	0.12
Cc1ccc(CN(C)C(=O)CCl)cc1 [PCM-0103017]	0.09

Tell me reported NUDT7 for C=CC(=O)NCC1CCCc2sc(C)nc21 (stereo not drawn) [PCM-0102952] , tested with NUDT7 (Homo sapiens, UniProt P0C024). 0

Param readout = NUDT7; param system = NUDT7 (Homo sapiens, UniProt P0C024); param query = Cc1ccc(C2=NN(C(=O)CCl)C(c3ccco3)C2)o1 (stereo not drawn) [PCM-0102102] ; response: value 0.2

Give NUDT7 (Homo sapiens, UniProt P0C024) NUDT7 for CC1CCc2c(sc(NC(=O)CCl)c2C(N)=O)C1 (stereo not drawn) [PCM-0103029] 0.09

Enter reported NUDT7 observed with NUDT7 (Homo sapiens, UniProt P0C024) for O=C(CCl)N(C1CC1)C1CCS(=O)(=O)C1 (stereo not drawn) [PCM-0102832] 0

Provide the documented NUDT7 with NUDT7 (Homo sapiens, UniProt P0C024) as the system for O=C(CCl)N1CCN(S(=O)(=O)c2ccccc2Cl)CC1 [PCM-0102837] 0.18

Give recorded NUDT7 with NUDT7 (Homo sapiens, UniProt P0C024) for the following molecule: C=CC(=O)N1CCC(n2cccn2)CC1 [PCM-0102555] 0

# query: NUDT7 | item C=CC(=O)N1CC2(CCCC2)c2cc3c(cc2C1C)OCCO3 (stereo not drawn) [PCM-0102560] | system: NUDT7 (Homo sapiens, UniProt P0C024) 0

Please provide the recorded NUDT7 for Cc1ccc([N+](=O)[O-])c(NC(=O)CCl)c1C [PCM-0102511] , tested on NUDT7 (Homo sapiens, UniProt P0C024). 0.15

Recorded NUDT7 for CC(NC(=O)CCl)C(=O)O (stereo not drawn) [PCM-0102990] with NUDT7 (Homo sapiens, UniProt P0C024), please? 0

Param readout = NUDT7; param system = NUDT7 (Homo sapiens, UniProt P0C024); param query = Cc1csc(NC(=O)CCl)n1.Cl [PCM-0102872] ; response: value 0.16

Provide the documented NUDT7 with NUDT7 (Homo sapiens, UniProt P0C024) as the system for Cc1ccc(C)c(-n2nc(C)cc2NC(=O)CCl)c1 [PCM-0102249] 0

These measurements were taken from paper PMC6556873.
